// values below are reported cell viability
- Test system: Calu-3
- MEASUREMENT DESCRIPTION: cell viability relative to DMSO; higher = less toxic
- CONDITION DESCRIPTION: 72 h; 10000 nM

COMPOUND	MEASURED ON	cell viability [%]
Cc1cccc(-c2[nH]c(C(C)(C)C)nc2-c2ccc3nccnc3c2)n1	Calu-3	87.3
NC(=O)c1ccc[n+]([C@@H]2O[C@H](COP(=O)([O-])OP(=O)(O)OC[C@H]3O[C@@H](n4cnc5c(N)ncnc54)[C@H](O)[C@@H]3O)[C@@H](O)[C@H]2O)c1 [nadide]	Calu-3	106
C[C@@H](O[C@H]1OCCN(Cc2n[nH]c(=O)[nH]2)[C@H]1c1ccc(F)cc1)c1cc(C(F)(F)F)cc(C(F)(F)F)c1 [aprepitant]	Calu-3	97.1
CC(=O)OCC(=O)[C@@]1(O)CC[C@H]2[C@@H]3CCC4=CC(=O)CC[C@]4(C)[C@@]3(F)[C@@H](O)C[C@@]21C [FLUDROCORTISONE ACETATE]	Calu-3	104
CCC(=O)c1cc(-c2ccc(Cl)cc2)n(-c2ccc(S(N)(=O)=O)cc2)c1C	Calu-3	103
Cc1cccc(C)c1NC(=O)c1ccccc1C(=O)O [ftaxilide]	Calu-3	106
C#Cc1cccc(Nc2ncnc3cc(OCCOC)c(OCCOC)cc23)c1	Calu-3	30.1
CCS(=O)(=O)N1CCC([C@@H](C)n2c(C)c(C(=O)NCc3c(OC)cc(C)[nH]c3=O)c3ccccc32)CC1	Calu-3	97.4
Cc1ncc[nH]1	Calu-3	117
O=C(NC(=O)c1c(F)cccc1F)Nc1cc(Cl)c(OC(F)(F)C(F)C(F)(F)F)cc1Cl (stereo unspecified)	Calu-3	95.3
C=C(CC)C(=O)c1ccc(OCC(=O)O)c(Cl)c1Cl	Calu-3	106
CCOc1cc([C@@H](CS(C)(=O)=O)N2C(=O)c3cccc(NC(C)=O)c3C2=O)ccc1OC	Calu-3	108
Cc1cc(Nc2ncnc3ccc(-c4ccc(CNCCS(C)(=O)=O)o4)cc23)ccc1Oc1ccn2ncnc2c1	Calu-3	30.5
C[N+](C)(C)CC(O)CC(=O)[O-] (stereo unspecified)	Calu-3	94.3
NCCC[C@H](N)C(=O)O	Calu-3	104
Cc1[nH]nc(C(F)(F)F)c1Cc1sc2c(c1C(=O)N1C[C@](C)(O)CO1)c(=O)n(C)c(=O)n2C(C)C	Calu-3	107
Cn1cc(-c2[nH]c3cc(NC(=O)[C@H](N)C4CCCCC4)cc4c3c2C=NNC4=O)cn1	Calu-3	51.2
C[C@@H]1CCCN1CCc1cc2cc(-c3ccc(C#N)cc3)ccc2o1	Calu-3	58.9
Oc1ccc(-c2nc(-c3ccc(F)cc3)c(-c3ccncc3)[nH]2)cc1	Calu-3	91.2
CC(=O)N1CCC[C@H]1C(=O)N[C@@H](Cc1cnc[nH]1)C(=O)N[C@@H](CO)C(=O)N[C@@H](CS)C(=O)N[C@@H](CC(N)=O)C(N)=O	Calu-3	97.2
CCCc1c(OCC(O)COc2ccc3c(=O)cc(C(=O)O)oc3c2CCC)ccc(C(C)=O)c1O (stereo unspecified)	Calu-3	109
CN1CC[C@@]2(C)c3cc(O)ccc3N(C)[C@@H]12 [eseroline-(-)]	Calu-3	84.6
O=c1[nH]c2ccc(Cl)cc2c(N[C@@H]2CN3CCC2CC3)c1-c1nc2ccccc2[nH]1	Calu-3	59.9
NC(=O)c1ccccc1O [salicylamide]	Calu-3	104
Clc1cccc(/C=N/N=C/c2cccc(Cl)c2)c1	Calu-3	96.1
O=C(Nc1c(Cl)cncc1Cl)c1ccc(OC(F)F)c(OCC2CC2)c1	Calu-3	98.6
Clc1ccccc1CN1CCc2sccc2C1	Calu-3	101
COc1ccc(C(=O)c2c(C)n(CCN3CCOCC3)c3cc(I)ccc23)cc1	Calu-3	92.9
Cc1cc(O)c2c(c1)C(=O)c1cc(O)cc(O)c1C2=O	Calu-3	102
O=C1CCC(N2C(=O)c3ccccc3C2=O)C(=O)N1 (stereo unspecified) [thalidomide]	Calu-3	97.9
O=C1C(=Cc2cccnc2)C(=O)c2ccccc21	Calu-3	95.6
CCN(CC)Cc1cc(Nc2ccnc3cc(Cl)ccc23)ccc1O	Calu-3	81.8
COc1ccc2c(c1)CN(C)CC2c1ccc(Cl)c(Cl)c1 (stereo unspecified)	Calu-3	87.9
O=C(N[C@@H](Cc1c[nH]c2ccccc12)C(=O)O)c1ccc(Cl)cc1	Calu-3	108
CNc1ncc2cc(-c3cc(NC(=O)NCCC(C)(C)C)c(F)cc3C)c(C)nc2n1	Calu-3	24.6
O=C(O)c1c2ccccc2cc2ccccc12	Calu-3	96

---

- Tested on: Calu-3
- MEASUREMENT DESCRIPTION: cell viability relative to DMSO; higher = less toxic
- CONDITION DESCRIPTION: 72 h; 1000 nM
RECORDED METRIC: cell viability (%)

COMPOUND	RECORDED NUMBER
C[C@@H](O)[C@H]1C(=O)N2C(C(=O)O)=C([C@H]3CCCO3)S[C@H]12	98
COc1ncc(-c2ccc3c(Nc4cc(Oc5cc(F)cc(F)c5)cc(C(=O)O)c4)c(S(=O)(=O)NC4CC4)cnc3c2)c(OC)n1	96.3
Nc1ccc(-c2nc3ccc(-c4nc5ccc(N)cc5[nH]4)cc3[nH]2)cc1	102
O=c1[nH]c2ccc(Cl)cc2c(N[C@@H]2CN3CCC2CC3)c1-c1nc2ccccc2[nH]1	97.3
NC[C@H]1O[C@H](O[C@H]2[C@H](O)[C@@H](O[C@H]3O[C@H](CO)[C@@H](O)[C@H](N)[C@H]3O)[C@H](N)C[C@@H]2N)[C@H](O)[C@@H](O)[C@@H]1O	114
O=C1CCC(N2C(=O)c3ccccc3C2=O)C(=O)N1 (configuration not stated) [thalidomide]	93.6
Cc1ncc[nH]1	107
CCCCC(=O)N(Cc1ccc(-c2ccccc2-c2nnn[nH]2)cc1)[C@H](C(=O)O)C(C)C	102
O=C(O)[C@H](Cc1ccc(Nc2nccc3ccncc23)cc1)NC1=C(Br)C(=O)C12CCCCC2	89.6
C=C(CC)C(=O)c1ccc(OCC(=O)O)c(Cl)c1Cl	90.5
Cc1cc(Nc2ncnc3ccc(-c4ccc(CNCCS(C)(=O)=O)o4)cc23)ccc1Oc1ccn2ncnc2c1	45.5
CC(C)c1noc(N2CCC(COc3ccc(-c4ccc(S(C)(=O)=O)cc4)nc3)CC2)n1	94.4
CC1=C(/C=C/C(C)=C/C=C/C(C)=C/C=C/C=C(C)/C=C/C=C(C)/C=C/C2=C(C)C(=O)[C@@H](O)CC2(C)C)C(C)(C)C[C@H](O)C1=O	96.4
C[C@H](NC(=O)C(C)(C)Oc1ccc(C(F)(F)F)cn1)[C@@H](Cc1ccc(Cl)cc1)c1cccc(C#N)c1	107
Cc1cc(I)ccc1Nc1c(C(=O)NOCC2CC2)cc(F)c(F)c1F	80.3
CN(C)[C@@H](CCOc1cccc2ccccc12)c1ccccc1	91.7
N#Cc1ccc(N(Cc2ccc(Br)cc2)n2cnnc2)cc1	97.4

---

// values below are reported cell viability
- Test system: HepG2
- MEASUREMENT DESCRIPTION: cell viability relative to DMSO; higher = less toxic
- CONDITION DESCRIPTION: 72 h; 1 nM
RECORDED METRIC: cell viability (%)

COMPOUND	MEASURED ON	UNITS SYMBOL	RECORDED NUMBER
CCCCCCCCOc1ccccc1C(=O)Nc1ccc(C(=O)OCC[N+](C)(CC)CC)cc1 [otilonium]	HepG2	%	109
CC(=O)O[C@]1(C(C)=O)CC[C@H]2[C@@H]3C[C@H](C)C4=CC(=O)C=C[C@]4(C)[C@@]3(F)[C@@H](O)C[C@@]21C [fluorometholone-acetate]	HepG2	%	102
COc1cccc2c1C(=O)c1c(O)c3c(c(O)c1C2=O)C[C@@](O)(C(=O)CO)C[C@@H]3O[C@H]1C[C@H](N2CCO[C@H](OC)C2)[C@H](O)[C@H](C)O1 [nemorubicin]	HepG2	%	55.4
CC1(N)CCN(c2cnc(-c3cccc(Cl)c3Cl)c(N)n2)CC1 [SHP099]	HepG2	%	91.2
O=C(Nc1ccc(-c2ccncc2)cc1)N[C@H](CO)c1ccccc1	HepG2	%	96.7
c1ccc2sc(N3CCN(Cc4ccc5c(c4)OCO5)CC3)nc2c1 [2-[1-(4-piperonyl)piperazinyl]benzothiazole]	HepG2	%	98.4
CC(=O)CC(c1ccccc1)c1c(O)c2ccccc2oc1=O (configuration not stated) [warfarin]	HepG2	%	100

---

- System: U2OS
- MEASUREMENT DESCRIPTION: cell viability relative to DMSO; higher = less toxic
- CONDITION DESCRIPTION: 72 h; 1 nM
// values below are reported cell viability
RECORDED METRIC: cell viability (%)

> print(dat)
                                   compound  recorded.number
1      C=C(CC)C(=O)c1ccc(OCC(=O)O)c(Cl)c1Cl             98.7
2  CSc1ccc2c(c1)N(CCC1CCCCN1C)c1ccccc1S2 (centres undefined)              105
3  Cc1cccc(C)c1NC(=O)c1ccccc1C(=O)O [ftaxilide]              102
4                 CC(=O)NCCc1c[nH]c2ccccc12             95.4

Source of measurements: the supplement of paper PMC13380429
